# target: rat α6/α3β4 nAChR (Rattus norvegicus, UniProt P04757+P12392+P43143)
# Sequence (P04757 whole entry, looked up): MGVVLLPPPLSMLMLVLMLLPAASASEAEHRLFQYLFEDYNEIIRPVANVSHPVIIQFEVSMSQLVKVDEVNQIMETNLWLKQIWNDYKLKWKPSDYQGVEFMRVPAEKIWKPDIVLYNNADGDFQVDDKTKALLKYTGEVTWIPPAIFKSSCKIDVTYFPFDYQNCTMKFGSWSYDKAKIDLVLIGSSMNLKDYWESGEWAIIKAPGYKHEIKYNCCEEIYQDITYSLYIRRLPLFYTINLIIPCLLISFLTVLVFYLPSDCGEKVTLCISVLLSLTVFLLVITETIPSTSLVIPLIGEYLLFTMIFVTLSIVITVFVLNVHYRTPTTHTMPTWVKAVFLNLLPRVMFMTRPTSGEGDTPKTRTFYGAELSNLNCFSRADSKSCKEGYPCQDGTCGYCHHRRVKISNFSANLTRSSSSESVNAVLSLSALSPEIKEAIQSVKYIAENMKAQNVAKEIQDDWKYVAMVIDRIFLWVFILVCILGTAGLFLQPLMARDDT
# Sequence (P12392 whole entry, looked up): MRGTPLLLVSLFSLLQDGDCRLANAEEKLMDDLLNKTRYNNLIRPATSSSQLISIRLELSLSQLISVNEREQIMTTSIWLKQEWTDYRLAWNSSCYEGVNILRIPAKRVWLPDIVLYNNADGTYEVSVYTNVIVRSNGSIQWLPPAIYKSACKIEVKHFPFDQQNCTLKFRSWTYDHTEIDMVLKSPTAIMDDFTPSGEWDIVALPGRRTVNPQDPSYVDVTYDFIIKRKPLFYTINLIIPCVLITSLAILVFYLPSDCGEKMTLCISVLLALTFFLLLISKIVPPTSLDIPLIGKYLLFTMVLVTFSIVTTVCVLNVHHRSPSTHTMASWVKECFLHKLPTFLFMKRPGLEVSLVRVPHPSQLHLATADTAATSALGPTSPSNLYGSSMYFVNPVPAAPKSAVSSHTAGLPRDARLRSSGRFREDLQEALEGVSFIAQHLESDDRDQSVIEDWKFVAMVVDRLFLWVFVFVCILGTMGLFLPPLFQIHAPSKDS
# Sequence (P43143 whole entry, looked up): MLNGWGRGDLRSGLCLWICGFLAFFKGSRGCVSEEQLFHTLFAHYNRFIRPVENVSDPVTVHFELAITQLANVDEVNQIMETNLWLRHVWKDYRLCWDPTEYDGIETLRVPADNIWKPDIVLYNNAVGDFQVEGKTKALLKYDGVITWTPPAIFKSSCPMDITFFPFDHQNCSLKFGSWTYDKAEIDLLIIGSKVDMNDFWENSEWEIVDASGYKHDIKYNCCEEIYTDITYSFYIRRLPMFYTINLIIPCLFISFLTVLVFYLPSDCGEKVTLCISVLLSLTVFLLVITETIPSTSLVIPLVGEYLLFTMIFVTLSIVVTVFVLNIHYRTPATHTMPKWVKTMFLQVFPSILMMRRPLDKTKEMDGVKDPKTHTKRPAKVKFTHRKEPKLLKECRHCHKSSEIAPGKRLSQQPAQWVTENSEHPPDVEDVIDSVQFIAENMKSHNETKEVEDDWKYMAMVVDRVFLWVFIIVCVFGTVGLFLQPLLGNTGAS
# protocol-notes: cell-based
Peptide text beside a SMILES is read from it.
Assignment: determine reported α6/α3β4 IC50 ratio for the given compounds.

compound	quantity-measured	result
CSCC[C@@H]1NC(=O)[C@H](C)NC(=O)[C@H](CO)NC(=O)[C@@H]2CSSC[C@H](NC(=O)CN)C(=O)N[C@@H](CSSC[C@@H](C(N)=O)NC(=O)[C@H](CC(=O)O)NC(=O)[C@@H]3CCCN3C(=O)[C@H](CO)NC1=O)C(=O)N[C@@H](CO)C(=O)N[C@@H](Cc1c[nH]cn1)C(=O)N1CCC[C@H]1C(=O)N[C@@H](C(C)C)C(=O)N2 [TxID[I14D]] (HELM PEPTIDE1{G.C.C.S.H.P.V.C.S.A.M.S.P.D.C.[am]}$PEPTIDE1,PEPTIDE1,2:R3-8:R3|PEPTIDE1,PEPTIDE1,3:R3-15:R3$$$V2.0)	α6/α3β4 IC50 ratio	1.2

Now examine the next entry.
IN: Notebook entry, rat α6/α3β4 nAChR (Rattus norvegicus, UniProt P04757+P12392+P43143) assay: α6/α3β4 IC50 ratio of CC[C@H](C)[C@@H]1NC(=O)[C@@H]2CCCN2C(=O)[C@H](CO)NC(=O)[C@H](CCSC)NC(=O)[C@H](C)NC(=O)[C@H](Cc2ccccc2)NC(=O)[C@@H]2CSSC[C@H](NC(=O)CN)C(=O)N[C@@H](CSSC[C@@H](C(N)=O)NC1=O)C(=O)N[C@@H](CO)C(=O)N[C@@H](Cc1c[nH]cn1)C(=O)N1CCC[C@H]1C(=O)N[C@@H](C(C)C)C(=O)N2 [TxID[S9F]] (HELM PEPTIDE1{G.C.C.S.H.P.V.C.F.A.M.S.P.I.C.[am]}$PEPTIDE1,PEPTIDE1,2:R3-8:R3|PEPTIDE1,PEPTIDE1,3:R3-15:R3$$$V2.0) = ?
OUT: 0.2

###

# target: rat α6/α3β4 nAChR (Rattus norvegicus, UniProt P04757+P12392+P43143)
# protocol-notes: cell-based
# particulars: α6/α3β4 IC50 (half-blocking dose)
Peptide text beside a SMILES is read from it.
Assignment: determine reported IC50 for the given compounds.

Use the examples below as a reference point.
compound	quantity-measured	result
CSCC[C@@H]1NC(=O)[C@H](C)NC(=O)[C@H](CO)NC(=O)[C@@H]2CSSC[C@H](NC(=O)CN)C(=O)N[C@@H](CSSC[C@@H](C(N)=O)NC(=O)[C@H](CC(C)C)NC(=O)[C@@H]3CCCN3C(=O)[C@H](CO)NC1=O)C(=O)N[C@@H](CO)C(=O)N[C@@H](Cc1c[nH]cn1)C(=O)N1CCC[C@H]1C(=O)N[C@@H](C(C)C)C(=O)N2 [TxID[I14L]] (HELM PEPTIDE1{G.C.C.S.H.P.V.C.S.A.M.S.P.L.C.[am]}$PEPTIDE1,PEPTIDE1,2:R3-8:R3|PEPTIDE1,PEPTIDE1,3:R3-15:R3$$$V2.0)	IC50	29 nM
CC[C@H](C)[C@@H]1NC(=O)[C@@H]2CCCN2C(=O)[C@H](CO)NC(=O)[C@H](Cc2c[nH]cn2)NC(=O)[C@H](C)NC(=O)[C@H](CO)NC(=O)[C@@H]2CSSC[C@H](NC(=O)CN)C(=O)N[C@@H](CSSC[C@@H](C(N)=O)NC1=O)C(=O)N[C@@H](CO)C(=O)N[C@@H](Cc1c[nH]cn1)C(=O)N1CCC[C@H]1C(=O)N[C@@H](C(C)C)C(=O)N2 [TxID[M11H]] (HELM PEPTIDE1{G.C.C.S.H.P.V.C.S.A.H.S.P.I.C.[am]}$PEPTIDE1,PEPTIDE1,2:R3-8:R3|PEPTIDE1,PEPTIDE1,3:R3-15:R3$$$V2.0)	IC50	3490 nM
CC[C@H](C)[C@@H]1NC(=O)[C@@H]2CCCN2C(=O)[C@H](CO)NC(=O)[C@H](CCSC)NC(=O)[C@H](C)NC(=O)[C@H](CO)NC(=O)[C@@H]2CSSC[C@H](NC(=O)[C@H](C)N)C(=O)N[C@@H](CSSC[C@@H](C(N)=O)NC1=O)C(=O)N[C@@H](CO)C(=O)N[C@@H](Cc1c[nH]cn1)C(=O)N1CCC[C@H]1C(=O)N[C@@H](C(C)C)C(=O)N2 [TxID[G1A]] (HELM PEPTIDE1{A.C.C.S.H.P.V.C.S.A.M.S.P.I.C.[am]}$PEPTIDE1,PEPTIDE1,2:R3-8:R3|PEPTIDE1,PEPTIDE1,3:R3-15:R3$$$V2.0)	IC50	100 to 1000 nM
CC[C@H](C)[C@@H]1NC(=O)[C@@H]2CCCN2C(=O)[C@H](CO)NC(=O)[C@H](CCSC)NC(=O)[C@H](C)NC(=O)[C@H](CO)NC(=O)[C@H](CCCNC(=N)N)NC(=O)[C@@H]2CSSC[C@H](NC(=O)CN)C(=O)N[C@@H](CSSC[C@@H](C(N)=O)NC1=O)C(=O)N[C@@H](CO)C(=O)N[C@@H](Cc1c[nH]cn1)C(=O)N1CCC[C@H]1C(=O)N[C@@H](C(C)C)C(=O)N2 [TxID[9R]] (HELM PEPTIDE1{G.C.C.S.H.P.V.C.R.S.A.M.S.P.I.C.[am]}$PEPTIDE1,PEPTIDE1,2:R3-8:R3|PEPTIDE1,PEPTIDE1,3:R3-16:R3$$$V2.0)	IC50	> 10000 nM
CC[C@H](C)[C@@H]1NC(=O)[C@H](CC(=O)O)NC(=O)[C@@H]2CCCN2C(=O)[C@H](CO)NC(=O)[C@H](CCSC)NC(=O)[C@H](C)NC(=O)[C@H](CO)NC(=O)[C@@H]2CSSC[C@H](NC(=O)CN)C(=O)N[C@@H](CSSC[C@@H](C(N)=O)NC1=O)C(=O)N[C@@H](CO)C(=O)N[C@@H](Cc1c[nH]cn1)C(=O)N1CCC[C@H]1C(=O)N[C@@H](C(C)C)C(=O)N2 [TxID[14D]] (HELM PEPTIDE1{G.C.C.S.H.P.V.C.S.A.M.S.P.D.I.C.[am]}$PEPTIDE1,PEPTIDE1,2:R3-8:R3|PEPTIDE1,PEPTIDE1,3:R3-16:R3$$$V2.0)	IC50	2260 nM
CC[C@H](C)[C@@H]1NC(=O)[C@@H]2CCCN2C(=O)[C@H](CO)NC(=O)[C@H](CCSC)NC(=O)[C@H](C)NC(=O)[C@H](C)NC(=O)[C@@H]2CSSC[C@H](NC(=O)CN)C(=O)N[C@@H](CSSC[C@@H](C(N)=O)NC1=O)C(=O)N[C@@H](CO)C(=O)N[C@@H](Cc1c[nH]c3ccccc13)C(=O)N1CCC[C@H]1C(=O)N[C@@H](C(C)C)C(=O)N2 [TxID[H5W, S9A]] (HELM PEPTIDE1{G.C.C.S.W.P.V.C.A.A.M.S.P.I.C.[am]}$PEPTIDE1,PEPTIDE1,2:R3-8:R3|PEPTIDE1,PEPTIDE1,3:R3-15:R3$$$V2.0)	IC50	> 10000 nM

Please give IC50 for each item listed below.
1. CC[C@H](C)[C@@H]1NC(=O)[C@@H]2CCCN2C(=O)[C@H](CO)NC(=O)[C@H](CCSC)NC(=O)[C@H](C)NC(=O)[C@H](CCCNC(=N)N)NC(=O)[C@H](CO)NC(=O)[C@@H]2CSSC[C@H](NC(=O)CN)C(=O)N[C@@H](CSSC[C@@H](C(N)=O)NC1=O)C(=O)N[C@@H](CO)C(=O)N[C@@H](Cc1c[nH]cn1)C(=O)N1CCC[C@H]1C(=O)N[C@@H](C(C)C)C(=O)N2 [TxID[10R]] (HELM PEPTIDE1{G.C.C.S.H.P.V.C.S.R.A.M.S.P.I.C.[am]}$PEPTIDE1,PEPTIDE1,2:R3-8:R3|PEPTIDE1,PEPTIDE1,3:R3-16:R3$$$V2.0)
2. CC[C@H](C)[C@@H]1NC(=O)[C@@H]2CCCN2C(=O)[C@H](CO)NC(=O)[C@H](CCSC)NC(=O)[C@H](C)NC(=O)[C@H](CO)NC(=O)[C@@H]2CSSC[C@H](NC(=O)CN)C(=O)N[C@@H](CSSC[C@@H](C(N)=O)NC1=O)C(=O)N[C@@H](CO)C(=O)N[C@@H](Cc1c[nH]cn1)C(=O)N1CCC[C@H]1C(=O)N[C@@H](C)C(=O)N2 [TxID[V7A]] (HELM PEPTIDE1{G.C.C.S.H.P.A.C.S.A.M.S.P.I.C.[am]}$PEPTIDE1,PEPTIDE1,2:R3-8:R3|PEPTIDE1,PEPTIDE1,3:R3-15:R3$$$V2.0)

OUT:
> 10000 nM
> 10000 nM

Hey, just so you know, these numbers are from patent US20190330275A1.
